tested on: Mus musculus; experiment: Anticonvulsant activity in CF1 albino mouse assessed as inhibition of maximal electroshock-induced seizures at 30 mg/kg, ip after 0.5 hrs; format: functional, organism-based; set-up: dose 30 mg/kg
Calls of active or inactive are those of the source. The rule behind the calls is not given here.
Pick one and only one: t (active), f (inactive)

CCC(C)CC(=O)Nc1ccc(S(N)(=O)=O)cc1 (stereo not drawn) ... f
CCCC(CCC)C(=O)O ... f
CCC(CC(C)C)C(=O)Nc1ccc(S(N)(=O)=O)cc1 (stereo not drawn) ... f
CC(C)C(C(=O)Nc1ccc(S(N)(=O)=O)cc1)C(C)(C)C (stereo not drawn) ... f
CC(C)(C)CC(=O)NCc1ccc(S(N)(=O)=O)cc1 ... f

Exercise: Recorded test call requested for CCC(C)C(CC)C(=O)Nc1ccc(S(N)(=O)=O)cc1 (stereo not drawn)
Key: f

Exercise: What did the test return for CCCC(C(=O)Nc1ccc(S(N)(=O)=O)cc1)C(C)CC (stereo not drawn) ?
Key: f

Exercise: Tell me the recorded outcome of this test for `CC(C)(C)CC(=O)Nc1ccc(S(N)(=O)=O)cc1` .
Key: f

Exercise: What classification did `CC(C)(C)C(=O)Nc1ccc(S(N)(=O)=O)cc1` end up with in this test?
Key: f

Exercise: Just curious, what result did CCCC(CC)C(=O)Nc1ccc(S(N)(=O)=O)cc1 (stereo not drawn) get here?
Key: f

Exercise: // param item: CCC(C(=O)Nc1ccc(S(N)(=O)=O)cc1)C(C)(C)C (stereo not drawn) ; yields the recorded call
Key: f

###

system: Rattus norvegicus; assay: Anticonvulsant activity in Sprague-Dawley rat assessed as inhibition of maximal electroshock-induced seizures at 30 mg/kg, po after 4 hrs
Active and inactive are the calls of the source. The calls are words filed in the database; no cut-off is given here.
I would appreciate it if you answered using one of these outcomes: yes (1) (active), no (0) (inactive)

For orientation, consider the following solved cases.
CCC(C)C(C(=O)Nc1ccc(S(N)(=O)=O)cc1)C(C)C (stereo unspecified) ... no (0)
NS(=O)(=O)c1ccc(NC(=O)Cc2ccccc2)cc1 ... yes (1)
CCCC(C(=O)Nc1ccc(S(N)(=O)=O)cc1)C(C)(C)C (stereo unspecified) ... no (0)
CCCCC(CC)C(=O)Nc1ccc(S(N)(=O)=O)cc1 (stereo unspecified) ... yes (1)
CCC(CC)C(=O)NCc1ccc(S(N)(=O)=O)cc1 ... no (0)
CCCC(C)C(=O)Nc1ccc(S(N)(=O)=O)cc1 (stereo unspecified) ... yes (1)
CCC(C)CC(=O)Nc1ccc(S(N)(=O)=O)cc1 (stereo unspecified) ... yes (1)
CC(C)(C)C(=O)Nc1ccc(S(N)(=O)=O)cc1 ... yes (1)

Exercise: Fill in: this test's call for CCC(C)C(=O)Nc1ccc(S(N)(=O)=O)cc1 (stereo unspecified) is ___
Key: yes (1)

Exercise: Please indicate how the test categorized `CCC(CC)C(=O)Nc1ccc(S(N)(=O)=O)cc1` .
Key: yes (1)

Exercise: Called result for `CC(C)(C)CC(=O)Nc1ccc(S(N)(=O)=O)cc1`
Key: yes (1)

###

tested on: Mus musculus; assay: Teratogenic effect in SWV mouse assessed as live fetuses at 486 mg/kg, ip administered on morning of day 8 of gestation; type: toxicity, organism-based; set-up: dose 486 mg/kg, route intraperitoneal; settings: in vivo
measurementLabel: Activity (%)
Answers are plain numbers, in %.

Answered cases to consult:
CCC(C)CC(=O)Nc1ccc(S(N)(=O)=O)cc1 (centres undefined) ... 32
CC(C)(C)CC(=O)Nc1ccc(S(N)(=O)=O)cc1 ... 91.1
CCC(CC)C(=O)Nc1ccc(S(N)(=O)=O)cc1 ... 47.9

Next item in the queue.
Lab note: measured Activity of CCCC(C)C(=O)Nc1ccc(S(N)(=O)=O)cc1 (centres undefined) was 41.7

###

Field: Activity. Provide a value for each of the compounds that follow.
tested on: Mus musculus; assay: Teratogenic effect in SWV mouse assessed as fetuses with neural tube deffects at 294 mg/kg, ip administered on morning of day 8 of gestation; format: toxicity, organism-based; set-up: dose 294 mg/kg, route intraperitoneal; details: in vivo
Entry format: amount then unit.

Answered examples (3):
CC(C)(C)CC(=O)Nc1ccc(S(N)(=O)=O)cc1 ... 3.7%
CCCC(C)C(=O)Nc1ccc(S(N)(=O)=O)cc1 (centres undefined) ... 5.6%
CCC(C)CC(=O)Nc1ccc(S(N)(=O)=O)cc1 (centres undefined) ... 9.9%

Next, consider the following compound.
Looking up `CCC(CC)C(=O)Nc1ccc(S(N)(=O)=O)cc1` , I found its Activity recorded as 4.5%

###

test system: Mus musculus; experiment: Anticonvulsant activity in CF1 albino mouse assessed as inhibition of subcutaneous pentylenetetrazole-induced seizures at 300 mg/kg, ip after 0.5 hrs; type: functional, organism-based; parameters: dose 300 mg/kg
Active and inactive are the calls of the source. The rule behind the calls is not given here.
Mark one answer only. Choices: active, inactive

CCCC(CC)C(=O)Nc1ccc(S(N)(=O)=O)cc1 (stereo not given) ... inactive
CCCC(CCC)C(=O)O [VALPROIC ACID] ... active
CCC(C(=O)Nc1ccc(S(N)(=O)=O)cc1)C(C)(C)C (stereo not given) ... inactive
CCC(C)C(=O)Nc1ccc(S(N)(=O)=O)cc1 (stereo not given) ... inactive
CCC(C)CC(=O)Nc1ccc(S(N)(=O)=O)cc1 (stereo not given) ... inactive
CC(C)(C)CC(=O)Nc1ccc(S(N)(=O)=O)cc1 ... inactive
CCCC(C)C(=O)Nc1ccc(S(N)(=O)=O)cc1 (stereo not given) ... inactive
NS(=O)(=O)c1ccc(NC(=O)Cc2ccccc2)cc1 ... inactive

Exercise: Just curious, what result did `CCC(CC)C(=O)NCCc1ccc(S(N)(=O)=O)cc1` get here?
Key: inactive

Exercise: Record request — test call for CCCC(C(=O)Nc1ccc(S(N)(=O)=O)cc1)C(C)C (stereo not given)
Key: inactive

###

assay: Teratogenic effect in SWV mouse assessed as dead fetuses at 522 mg/kg, ip administered on morning of day 8 of gestation; settings: in vivo, read-out: Ratio TD50/ED50
measurementLabel: selectivity ratio
One number for each entry.

molecule CCCC(CC)C(=O)Nc1ccc(S(N)(=O)=O)cc1 (stereo unspecified) , selectivity ratio observed: 43.1

###

tested on: Mus musculus; assay: Teratogenic effect in SWV mouse assessed as live fetuses at 148 mg/kg, ip administered on morning of day 8 of gestation; type: toxicity, organism-based; parameters: dose 148 mg/kg, route intraperitoneal; details: in vivo
measurementLabel: Activity (%)
Numbers only, in %.

Worked set:
CCC(C)CC(=O)Nc1ccc(S(N)(=O)=O)cc1 (centres undefined) ... 89.4
CCCC(C)C(=O)Nc1ccc(S(N)(=O)=O)cc1 (centres undefined) ... 90
CC(C)(C)CC(=O)Nc1ccc(S(N)(=O)=O)cc1 ... 91.4

# evaluate next
Recorded result, `CCC(CC)C(=O)Nc1ccc(S(N)(=O)=O)cc1` , Activity: 93.3

###

test system: Mus musculus; test: Anticonvulsant activity in CF1 albino mouse assessed as inhibition of maximal electroshock-induced seizures at 30 mg/kg, ip after 0.5 hrs; type: functional, organism-based; design: dose 30 mg/kg
Active and inactive are the calls of the source. The rule behind the calls is not given here.
measurementLabel: Activity

Worked cases, Activity given:
NS(=O)(=O)c1ccc(NC(=O)Cc2ccccc2)cc1 ... inactive
CCCC(C(=O)Nc1ccc(S(N)(=O)=O)cc1)C(C)(C)C (configuration not stated) ... inactive
CCCC(C(=O)Nc1ccc(S(N)(=O)=O)cc1)C(C)C (configuration not stated) ... inactive
CCC(C)C(C(=O)Nc1ccc(S(N)(=O)=O)cc1)C(C)C (configuration not stated) ... inactive
CCC(CC)C(=O)NCc1ccc(S(N)(=O)=O)cc1 ... inactive

Can you give me Activity for all of these, one by one?
1. CCCCC(CC)C(=O)Nc1ccc(S(N)(=O)=O)cc1 (configuration not stated)
2. CC(C)(C)C(=O)NCc1ccc(S(N)(=O)=O)cc1
3. CCC(CC)C(=O)NCCc1ccc(S(N)(=O)=O)cc1

Key:
1: inactive; 2: inactive; 3: inactive

Please state Activity for every molecule in the list that follows.
1. CCC(C)C(=O)Nc1ccc(S(N)(=O)=O)cc1 (configuration not stated)
2. CC(C)C(C(=O)Nc1ccc(S(N)(=O)=O)cc1)C(C)C

Key:
Active
inactive

Take each entry in turn and give its Activity.
1. CCCC(C)C(=O)Nc1ccc(S(N)(=O)=O)cc1 (configuration not stated)
2. CCC(CC)C(=O)Nc1ccc(S(N)(=O)=O)cc1

Key:
1. inactive
2. Active

Each recorded value in this set is attributed to ChEMBL document CHEMBL1155468.
